Lab note: IC50 readings collected with TNF-α (Homo sapiens, UniProt P01375) for the following molecules.
Sequence (P01375 77-233 limits assumed): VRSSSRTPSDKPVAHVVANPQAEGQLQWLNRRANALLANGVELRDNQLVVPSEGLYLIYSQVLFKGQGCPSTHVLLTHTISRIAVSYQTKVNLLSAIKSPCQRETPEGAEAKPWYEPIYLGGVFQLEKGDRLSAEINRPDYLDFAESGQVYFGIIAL
Form entry: value (nM) — number only.

Worked cases, IC50 given:
Challenge: GET IC50 | system: TNF-α (Homo sapiens, UniProt P01375) | item: `CN(C)c1ccc(C=C2C=C(c3ccc(Cl)c(Cl)c3)N(C(=O)c3ccccc3)NC2=O)cc1`
Response given: 2.9

Challenge: GET IC50 | system: TNF-α (Homo sapiens, UniProt P01375) | item: `CN(C)c1ccc(C=C(CC(=O)c2ccc(Cl)c(Cl)c2)C(=O)NN)cc1`
Response given: 6.17

Challenge: State, for TNF-α (Homo sapiens, UniProt P01375), measured IC50 of the molecule listed here: `CN(C)c1ccc(Cc2cc(-c3ccc(Cl)c(Cl)c3)n[nH]c2=O)cc1`
Response given: 7.57

Challenge: # lookup: TNF-α (Homo sapiens, UniProt P01375) IC50, key = `O=C1NC(c2ccc(Cl)c(Cl)c2)=CC1=Cc1ccccc1[N+](=O)[O-]`
Response given: 5.93

Challenge: Give IC50; test system TNF-α (Homo sapiens, UniProt P01375); molecule `CN(C)c1ccc(C=C2C=C(c3ccc(Cl)c(Cl)c3)OC2=O)cc1`
Response given: 8.2

Next:
Challenge: Give IC50 only, for `CN(C)c1ccc(C=C(CC(=O)c2ccc(Cl)c(Cl)c2)C(=O)NCc2ccccc2)cc1` , using TNF-α (Homo sapiens, UniProt P01375) data.
Response given: 5.47

Challenge: GET IC50 | system: TNF-α (Homo sapiens, UniProt P01375) | item: `NNC(=O)C(=Cc1cccc([N+](=O)[O-])c1)CC(=O)c1ccc(Cl)c(Cl)c1`
Response given: 4.1

Challenge: Please indicate recorded IC50 of `O=C(CC(=Cc1ccccc1[N+](=O)[O-])c1n[nH]c(=S)o1)c1ccc(Cl)c(Cl)c1` measured with TNF-α (Homo sapiens, UniProt P01375).
Response given: 5.57

Challenge: Please look at `O=c1[nH]nc(-c2ccc(Cl)c(Cl)c2)cc1Cc1cccc([N+](=O)[O-])c1` and tell me its recorded IC50 on TNF-α (Homo sapiens, UniProt P01375).
Response given: 8.17

FYI, the data here is from paper PMC8118430.
